Data credit: ChEMBL document CHEMBL5385865

# half-life at 1 µM per entry
- experiment-description: Metabolic stability in human liver microsomes assessed as half life at 1 uM in presence of NADPH by LC-MS analysis
- Format: ADME, Microsome
value-type: half-life at 1 µM (min)

compound=CN(C)S(=O)(=O)c1ccc(N2CCC(Cn3c(C(F)(F)F)nc4ccccc43)CC2)cc1 value_type="half-life at 1 µM" quantitative_result=15.6
compound=O=C(c1ccc(N2CCC(Cn3c(C(F)(F)F)nc4ccccc43)CC2)cc1)N1CCCC1 value_type="half-life at 1 µM" quantitative_result=13.2
compound="CCOc1ccccc1-n1c(C(C)N2CCN(C(=O)COc3ccc(Cl)cc3)CC2)nc2ccccc2c1=O (centres undefined)" value_type="half-life at 1 µM" quantitative_result=4
compound=O=S(=O)(c1ccc(N2CCC(Cn3c(C(F)(F)F)nc4ccccc43)CC2)cc1)N1CCOCC1 value_type="half-life at 1 µM" quantitative_result=11.7
